# Target or system: c-Src SH2;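 further: peptide library displayed on the E. coli surface as eCPX fusions, selected cells deep-sequenced, score is each peptide's frequency after selection divided by its frequency in the input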
# Assay explanation: SH2 binding enrichment of the phosphorylated peptide, bacterial display (enrichment ratio); higher = better substrate or ligand; peptides without Tyr show the background
Readout name: SH2 binding enrichment

Worked set:
// SH2 binding enrichment value for LTTEAYEWEPR [ELMOD3_Y61] : 0.823

// SH2 binding enrichment value for FETDFYQKGGK [INSR_Y1190_R1191Q_YF] : 0.564

[1] GLSSAYGDLTS [KRT8_Y427_G429D]
[2] RHFVFYFSFLL [PTEN_Y177_R173H_YF]
Input: Would you let me know which has the greater SH2 binding enrichment value, 1 or 2 ? Choose, then provide that item's label.
Output: 2
(2: 1.4, 1: 0.608)

====

# Target or system: EPHB2 (UniProt P29323)
# Sequence (P29323 whole entry, looked up): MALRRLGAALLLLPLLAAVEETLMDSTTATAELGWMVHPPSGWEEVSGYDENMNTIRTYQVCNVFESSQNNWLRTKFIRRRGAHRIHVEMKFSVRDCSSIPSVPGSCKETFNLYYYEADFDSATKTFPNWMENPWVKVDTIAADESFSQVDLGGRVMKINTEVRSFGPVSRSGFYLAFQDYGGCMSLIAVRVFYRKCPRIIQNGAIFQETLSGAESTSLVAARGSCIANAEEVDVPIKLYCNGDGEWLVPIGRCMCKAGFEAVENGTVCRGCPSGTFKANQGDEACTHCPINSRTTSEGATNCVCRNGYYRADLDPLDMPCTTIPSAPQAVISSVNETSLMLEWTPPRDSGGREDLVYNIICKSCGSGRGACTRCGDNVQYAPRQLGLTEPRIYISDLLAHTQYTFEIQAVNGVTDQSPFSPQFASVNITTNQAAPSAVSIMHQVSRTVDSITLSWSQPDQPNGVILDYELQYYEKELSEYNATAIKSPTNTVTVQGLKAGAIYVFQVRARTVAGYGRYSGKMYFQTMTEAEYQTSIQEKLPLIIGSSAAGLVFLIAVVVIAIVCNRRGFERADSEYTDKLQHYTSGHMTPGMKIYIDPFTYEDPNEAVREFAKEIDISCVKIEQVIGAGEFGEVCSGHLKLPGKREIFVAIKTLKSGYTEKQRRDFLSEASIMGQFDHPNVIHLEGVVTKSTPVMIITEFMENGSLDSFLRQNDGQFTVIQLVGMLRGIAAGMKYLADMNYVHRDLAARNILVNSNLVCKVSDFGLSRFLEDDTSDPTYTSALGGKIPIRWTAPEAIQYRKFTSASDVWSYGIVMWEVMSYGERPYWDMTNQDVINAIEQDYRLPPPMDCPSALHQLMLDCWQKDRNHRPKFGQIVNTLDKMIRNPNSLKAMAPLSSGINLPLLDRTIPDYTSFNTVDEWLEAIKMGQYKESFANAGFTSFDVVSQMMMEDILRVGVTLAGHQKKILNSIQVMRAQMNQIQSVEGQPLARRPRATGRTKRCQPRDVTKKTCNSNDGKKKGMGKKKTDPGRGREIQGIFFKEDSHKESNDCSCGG
# Assay explanation: phosphorylation enrichment, bacterial display (enrichment ratio); higher = better substrate or ligand; peptides without Tyr show the background
Readout name: phosphorylation enrichment
Just the number, please, no unit after it.

// phosphorylation enrichment value for RHFVFYFSFLL [PTEN_Y177_R173H_YF] : 1.44

====

The sequences listed here are annotated with their phosphorylation enrichment.
# Target or system: Jak2 (UniProt O60674)
# Sequence (O60674 whole entry, looked up): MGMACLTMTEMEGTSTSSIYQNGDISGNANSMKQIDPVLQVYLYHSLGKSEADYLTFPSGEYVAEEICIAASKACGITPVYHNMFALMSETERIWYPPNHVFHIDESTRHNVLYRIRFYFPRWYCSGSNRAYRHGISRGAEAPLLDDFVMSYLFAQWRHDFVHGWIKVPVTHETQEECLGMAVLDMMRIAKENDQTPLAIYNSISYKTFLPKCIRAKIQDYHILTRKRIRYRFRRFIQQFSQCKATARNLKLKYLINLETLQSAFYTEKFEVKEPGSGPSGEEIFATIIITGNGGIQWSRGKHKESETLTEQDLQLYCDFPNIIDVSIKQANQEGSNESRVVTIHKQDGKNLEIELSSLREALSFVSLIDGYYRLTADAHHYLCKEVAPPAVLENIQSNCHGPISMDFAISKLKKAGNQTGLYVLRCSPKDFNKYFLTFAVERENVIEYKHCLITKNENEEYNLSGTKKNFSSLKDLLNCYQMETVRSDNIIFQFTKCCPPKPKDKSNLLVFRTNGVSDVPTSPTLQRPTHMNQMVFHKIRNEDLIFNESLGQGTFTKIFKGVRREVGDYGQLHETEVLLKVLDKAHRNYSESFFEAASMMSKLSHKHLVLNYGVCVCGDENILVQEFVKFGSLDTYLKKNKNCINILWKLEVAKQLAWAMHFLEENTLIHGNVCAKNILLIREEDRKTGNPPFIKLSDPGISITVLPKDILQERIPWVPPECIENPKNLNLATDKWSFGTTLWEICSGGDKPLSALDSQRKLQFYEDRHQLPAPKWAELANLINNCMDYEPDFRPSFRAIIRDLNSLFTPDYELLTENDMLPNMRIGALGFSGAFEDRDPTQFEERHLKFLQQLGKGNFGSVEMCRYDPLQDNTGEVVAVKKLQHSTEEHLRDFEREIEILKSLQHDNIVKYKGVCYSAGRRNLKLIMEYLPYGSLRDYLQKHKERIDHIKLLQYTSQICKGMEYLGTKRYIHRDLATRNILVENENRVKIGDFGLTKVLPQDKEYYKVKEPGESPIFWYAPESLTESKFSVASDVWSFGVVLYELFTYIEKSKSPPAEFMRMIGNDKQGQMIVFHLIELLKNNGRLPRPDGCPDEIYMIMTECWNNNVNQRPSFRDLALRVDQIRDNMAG
# Assay explanation: phosphorylation enrichment, bacterial display (enrichment ratio); higher = better substrate or ligand; peptides without Tyr show the background
Just the number, please, no unit after it.

Observed phosphorylation enrichment on Jak2 (UniProt O60674), entry PGDGEYFTLQI [TP53_Y327_L323G] , equals 4.13

Observed phosphorylation enrichment on Jak2 (UniProt O60674), entry YQRITYHNWRH [PDE6B_Y556_R552Q] , equals 0.561

Observed phosphorylation enrichment on Jak2 (UniProt O60674), entry KVFRVYQGQQP [MUTYH_Y494] , equals 0.484

Observed phosphorylation enrichment on Jak2 (UniProt O60674), entry AGIKAYQSCLQ [ADGRA2_Y377_T375K] , equals 0.841

Observed phosphorylation enrichment on Jak2 (UniProt O60674), entry GKSFTYAAFHA [KCNT1_Y563] , equals 0.826

New cases:
Observed phosphorylation enrichment on Jak2 (UniProt O60674), entry MDDDQYALLTT [EFCAB6_Y675] , equals 0.996

Observed phosphorylation enrichment on Jak2 (UniProt O60674), entry KDQPDYKYQPR [SOX9_Y172_H169Q] , equals 0.617

Observed phosphorylation enrichment on Jak2 (UniProt O60674), entry AVIADYMFWLG [SPATA16_Y290_M286V] , equals 3.42

Observed phosphorylation enrichment on Jak2 (UniProt O60674), entry GADDSYFTARS [ZAP70_Y492_YF] , equals 0.577

Observed phosphorylation enrichment on Jak2 (UniProt O60674), entry EWKNNYPRLRE [OPA1_Y582] , equals 0.564

Observed phosphorylation enrichment on Jak2 (UniProt O60674), entry KFMVGYEMLAK [GALT_Y339_Q344K] , equals 0.698

Observed phosphorylation enrichment on Jak2 (UniProt O60674), entry TVFSDYLHPQF [CCPG1_Y569_YF] , equals 1.83

====

The sequences listed here are annotated with their phosphorylation enrichment.
# Target or system: FGFR3 (UniProt P22607)
# Sequence (P22607 whole entry, looked up): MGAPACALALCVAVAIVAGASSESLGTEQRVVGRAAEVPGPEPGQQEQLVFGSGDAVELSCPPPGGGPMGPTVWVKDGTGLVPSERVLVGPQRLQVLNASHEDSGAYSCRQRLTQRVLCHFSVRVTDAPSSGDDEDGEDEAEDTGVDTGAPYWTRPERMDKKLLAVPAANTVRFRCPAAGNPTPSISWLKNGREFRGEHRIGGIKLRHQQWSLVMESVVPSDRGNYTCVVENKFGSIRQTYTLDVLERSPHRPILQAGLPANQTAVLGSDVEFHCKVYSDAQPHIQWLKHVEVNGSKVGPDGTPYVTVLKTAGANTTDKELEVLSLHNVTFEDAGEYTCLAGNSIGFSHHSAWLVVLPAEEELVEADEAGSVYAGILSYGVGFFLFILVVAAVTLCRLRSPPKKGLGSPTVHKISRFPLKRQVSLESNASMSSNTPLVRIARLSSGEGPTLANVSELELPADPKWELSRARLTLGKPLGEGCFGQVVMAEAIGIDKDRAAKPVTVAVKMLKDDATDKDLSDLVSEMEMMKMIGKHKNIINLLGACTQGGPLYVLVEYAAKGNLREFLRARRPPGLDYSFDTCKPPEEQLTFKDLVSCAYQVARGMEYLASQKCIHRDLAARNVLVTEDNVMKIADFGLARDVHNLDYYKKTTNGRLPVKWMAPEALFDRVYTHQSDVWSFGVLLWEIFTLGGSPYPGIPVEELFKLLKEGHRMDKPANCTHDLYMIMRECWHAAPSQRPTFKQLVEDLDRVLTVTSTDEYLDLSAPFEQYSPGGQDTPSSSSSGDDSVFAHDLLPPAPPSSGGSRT
# Assay explanation: phosphorylation enrichment, bacterial display (enrichment ratio); higher = better substrate or ligand; peptides without Tyr show the background
Just the number, please, no unit after it.

Worked set:
// phosphorylation enrichment value for QTLTDYDIRFY [CSNK2A1_Y131] : 0.84

// phosphorylation enrichment value for YNDSAYNQQLI [ZPLD1_Y198_T197A] : 0.68

// phosphorylation enrichment value for PTTKTYFPHFF [HBA1_Y43_D48Y_YF] : 0.696

// phosphorylation enrichment value for TFMKQYPKVFL [CNBD1_Y70] : 0.56

// below: phosphorylation enrichment requested for another sequence
// phosphorylation enrichment value for EREFKYGAHKF [OAT_Y50_N54K_YF] : 0.438

Data credit: the supplement of paper PMC10065799
